src = ChEMBL document CHEMBL1123299

# Test system: Rattus norvegicus
# experimental protocol: Incidence of arrhythmias in rats after a intravenal administration at 4 mg/kg, expressed as no. of positive cases out of no. of tested cases (10)
# Assay type: functional
As shown below, each of these compounds has a reported No. of positive cases value.
# respond with the number and nothing more

Tell me the measured No. of positive cases of Cc1cccc(C)c1OCC(C)NC(=O)C1CC(C)(C)N([O])C1(C)C (stereo not given) , please.
6

Tell me the measured No. of positive cases of CC1(C)C=C(C(=O)NCC(O)CNCc2cccs2)C(C)(C)N1 (stereo not given) , please.
8

Tell me the measured No. of positive cases of CC1(C)C=C(C(=O)NCCCNC(=O)C(C)(C)Oc2ccc(Cl)cc2)C(C)(C)N1 , please.
0

More entries:
Tell me the measured No. of positive cases of CCc1nc2ccccc2c(=O)n1CCCNC(=O)C1CC(C)(C)NC1(C)C (stereo not given) , please.
10

Tell me the measured No. of positive cases of COc1ccccc1CNCCCNC(=O)C1=CC(C)(C)NC1(C)C.Cl , please.
10

Tell me the measured No. of positive cases of CC1(C)C=C(C(=O)NCCNCc2ccccc2O)C(C)(C)N1 , please.
10

Tell me the measured No. of positive cases of COc1ccc(CNCCCNC(=O)C2=CC(C)(C)NC2(C)C)c(OC)c1 , please.
9

Tell me the measured No. of positive cases of Cc1cccc(C)c1NC(=O)CNC(=O)C1=CC(C)(C)N([O])C1(C)C , please.
0

Tell me the measured No. of positive cases of C/C=C/c1ccc(OC(C)C(=O)NCCCNC(=O)C2=CC(C)(C)NC2(C)C)c(OC)c1 (stereo not given) , please.
7

Tell me the measured No. of positive cases of CC1(C)C=C(C(=O)NCCCNC(=O)c2ccc3c(c2)OCO3)C(C)(C)N1 , please.
4
